Recorded values, source patent EP0732331A1.

# Tested on: MCII cells
# procedureSummary: MCII Mast Cell Toxicity Assay (XTT)
# Type: cell-based
# statedConditions: Mus musculus, Mast cell, read-out: Toxicity
propertyMeasured: IC50 (nM)
API: value field is a number in nM; no unit string.

IC50 in this record for O=C(c1ccccc1)c1c(-c2ccc(O)cc2)sc2cc(O)ccc12 [Compound A] : 300

====

# system: cPLA2 (Homo sapiens, UniProt P47712)
# Sequence (P47712 1-749): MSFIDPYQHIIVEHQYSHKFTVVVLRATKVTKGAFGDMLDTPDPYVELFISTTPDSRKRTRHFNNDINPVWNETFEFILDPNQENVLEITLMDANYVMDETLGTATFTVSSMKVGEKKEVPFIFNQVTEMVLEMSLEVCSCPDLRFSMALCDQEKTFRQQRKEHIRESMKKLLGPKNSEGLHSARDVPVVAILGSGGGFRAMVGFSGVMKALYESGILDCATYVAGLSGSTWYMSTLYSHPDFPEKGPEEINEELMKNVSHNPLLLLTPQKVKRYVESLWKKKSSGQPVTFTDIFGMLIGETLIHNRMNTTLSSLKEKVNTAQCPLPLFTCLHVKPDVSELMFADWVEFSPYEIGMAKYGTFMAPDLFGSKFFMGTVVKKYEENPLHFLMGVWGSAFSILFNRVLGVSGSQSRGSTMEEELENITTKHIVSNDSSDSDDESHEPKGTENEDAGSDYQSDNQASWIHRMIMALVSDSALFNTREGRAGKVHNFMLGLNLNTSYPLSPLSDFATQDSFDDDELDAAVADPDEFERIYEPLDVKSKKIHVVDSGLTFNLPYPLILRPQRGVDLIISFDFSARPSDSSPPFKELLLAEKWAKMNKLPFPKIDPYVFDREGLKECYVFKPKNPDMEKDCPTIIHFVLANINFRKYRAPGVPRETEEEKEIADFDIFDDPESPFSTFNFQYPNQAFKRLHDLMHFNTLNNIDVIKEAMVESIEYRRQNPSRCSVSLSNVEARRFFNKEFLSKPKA
propertyMeasured: IC50

Oc1ccc(-c2cc3ccc(O)cc3s2)cc1 [Compound B] | > 200 µM

We next turn to a different compound, shown below.
GET /value?item= O=C(c1cccc2ccccc12)c1c(-c2ccc(O)cc2)sc2cc(O)ccc12 [Example 2] &field=IC50 returns > 200 µM

====

# Tested on: MCII cells
# procedureSummary: MCII Mast Cell Toxicity Assay (XTT)
# Assay type: cell-based
# statedConditions: Mus musculus; MCII Mast Cell; XTT reduction, 4-12 hours; read-out: Toxicity
propertyMeasured: IC50

Below are worked cases with known answers.
Oc1ccc(-c2cc3ccc(O)cc3s2)cc1 | < 10 µM
O=C(c1ccc2ccccc2c1)c1c(-c2ccc(O)cc2)sc2cc(O)ccc12 | > 10 µM

The compound identified as `O=C(c1cccc2ccccc12)c1c(-c2ccc(O)cc2)sc2cc(O)ccc12` registered its IC50 at > 10 µM

====

Each entry below lists one item and its recorded pIC50 value.
# Tested on: production of leukotriene B4 (LTB4)
# procedureSummary: Inhibition of Eicosanoid Production by Plasma-depleted Blood: LTB4
# Assay type: cell-based
# statedConditions: Homo sapiens; Plasma DPLTD Blood; stimulated with FMLP and thrombin; read-out: LTB4
The quantity pIC50 is defined as the negative base-10 logarithm of the molar concentration.

O=C(c1cccc2ccccc12)c1c(-c2ccc(O)cc2)sc2cc(O)ccc12 | 6.70
O=C(c1ccc2ccccc2c1)c1c(-c2ccc(O)cc2)sc2cc(O)ccc12 | 6.70
COc1ccc(C(=O)c2c(-c3ccc(OC)cc3)sc3cc(OC)ccc23)cc1 | 5.82

What the record says about `Oc1ccc(-c2cc3ccc(O)cc3s2)cc1` : pIC50 is 6.10

====

Measured pIC50 by item
# Test system: production of leukotriene B4 (LTB4)
# procedureSummary: Inhibition of Eicosanoid Production by Plasma-depleted Blood: LTB4
# Format: cell-based
# statedConditions: Homo sapiens, read-out: LTB4
Just so you know, pIC50 here is -log10 of the concentration in molar units; reply with that number alone.

O=C(c1ccccc1)c1c(-c2ccc(O)cc2)sc2cc(O)ccc12 | 6.30

Data point: `O=C(c1ccc(O)cc1)c1c(-c2ccc(O)cc2)sc2cc(O)ccc12` ; pIC50 = 5.80

====

Each record here notes measured pIC50.
# System: production of LTC4 by the cytokine dependent mast cell line MCII
# procedureSummary: MCII Mast Cell LTC4 Assay
# Assay type: cell-based, mouse
# statedConditions: MCII Mast Cell; IgE-sensitized, stimulated with anti-mouse IgE EM95; read-out: LTC4
Here pIC50 is given on a logarithmic scale as minus log10 of the concentration in mol/L.

Worked cases, pIC50 given:
COc1ccc(C(=O)c2c(-c3ccc(OC)cc3)sc3cc(OC)ccc23)cc1 | 5.17
CC(C)(C)c1ccc(C(=O)c2c(-c3ccc(O)cc3)sc3cc(O)ccc23)cc1 | 5.46
Oc1ccc(-c2cc3ccc(O)cc3s2)cc1 | 6.15
O=C(c1ccc2ccccc2c1)c1c(-c2ccc(O)cc2)sc2cc(O)ccc12 | 5.41

--- query ---
Summary for this compound, `O=C(c1cccc2ccccc12)c1c(-c2ccc(O)cc2)sc2cc(O)ccc12` : pIC50 is 6.30
